SYSTEM_NAME: Aminopeptidase N (Plasmodium falciparum FcB1/Columbia)
METHOD_SUMMARY: Inhibition of Plasmodium falciparum FcB1 M1 aminopeptidase at 10 uM
inhibition values, listed per item
ASSAY_METRIC: inhibition

[[record]]
compound = "CC(C)CC(C(=O)NO)C(=O)N(CCCCc1ccccc1)CC(C)C (stereo not drawn)"
assay_value = "42%"

[[record]]
compound = "O=C(NO)C(Cc1cccc(Oc2ccccc2)c1)C(=O)NCCCCc1ccccc1 (stereo not drawn)"
assay_value = "96%"

[[record]]
compound = "NC(C(=O)NO)C(=O)N1CCc2ccccc2C1 (stereo not drawn)"
assay_value = "49%"

[[record]]
compound = "O=C(NO)C(Cc1ccccc1)C(=O)N(CCc1ccccc1)Cc1ccccc1 (stereo not drawn)"
assay_value = "75%"

[[record]]
compound = "O=C(CC(=O)N1CCN(Cc2ccccc2)CC1)NO"
assay_value = "8%"

[[record]]
compound = "CN(Cc1ccccc1)C(=O)C(Cc1cccc(Oc2ccccc2)c1)C(=O)NO (stereo not drawn)"
assay_value = "86%"

[[record]]
compound = "O=C(CC(=O)NCc1cccc(-c2ccccc2)c1)NO"
assay_value = "28%"

[[record]]
compound = "O=C(NO)C(Cc1ccccc1)C(=O)NC1Cc2ccccc2C1 (stereo not drawn)"
assay_value = "26%"

[[record]]
compound = "O=C(NO)C(Cc1ccccc1)C(=O)N1CCN(C(c2ccccc2)c2ccccc2)CC1 (stereo not drawn)"
assay_value = "0%"

[[record]]
compound = "O=C(NO)C(Cc1ccccc1)C(=O)NCc1ccc(C(F)(F)F)cc1 (stereo not drawn)"
assay_value = "67%"

[[record]]
compound = "O=C(NO)C(Cc1cccc(Oc2ccccc2)c1)C(=O)N1CCC(n2c(=O)[nH]c3ccccc32)CC1 (stereo not drawn)"
assay_value = "74%"

[[record]]
compound = "CC(C)CC(C(=O)NO)C(=O)N1CCC(Cc2ccccc2)CC1 (stereo not drawn)"
assay_value = "100%"

[[record]]
compound = "O=C(NO)C(Cc1cccc(Oc2ccccc2)c1)C(=O)NCCc1ccccn1 (stereo not drawn)"
assay_value = "67%"

[[record]]
compound = "NC(C(=O)NO)C(=O)NCc1cccc(-c2ccccc2)c1 (stereo not drawn)"
assay_value = "35%"

[[record]]
compound = "O=C(NO)C(Cc1ccccc1)C(=O)NCCC(c1ccccc1)c1ccccc1 (stereo not drawn)"
assay_value = "65%"

[[record]]
compound = "Cc1ccccc1CNC(=O)C(Cc1cccc(Oc2ccccc2)c1)C(=O)NO (stereo not drawn)"
assay_value = "99%"

[[record]]
compound = "O=C(NO)C(Cc1ccccc1)C(=O)N1CCN(c2ccccc2)CC1 (stereo not drawn)"
assay_value = "20%"

[[record]]
compound = "O=C(NO)C(Cc1ccccc1)C(=O)N1CCN(Cc2ccccc2)CC1 (stereo not drawn)"
assay_value = "75%"

[[record]]
compound = "O=C(CC(=O)NC1Cc2ccccc2C1)NO"
assay_value = "-2%"

[[record]]
compound = "NC(C(=O)NO)C(=O)N1CCC(n2c(=O)[nH]c3ccccc32)CC1 (stereo not drawn)"
assay_value = "12%"

[[record]]
compound = "CN(CCCNC(=O)C(N)C(=O)NO)c1ccccc1 (stereo not drawn)"
assay_value = "3%"

[[record]]
compound = "COc1cccc(CC(C(=O)NO)C(=O)NCc2cccc(Oc3ccccc3)c2)c1 (stereo not drawn)"
assay_value = "68%"

[[record]]
compound = "NC(C(=O)NO)C(=O)N1CCC(Cc2ccccc2)CC1 (stereo not drawn)"
assay_value = "45%"

